Data credit: patent US20260242478A1

Molecular target: T1, Anti-CD28 Fab (SEQ ID NOs: 696, 697)
T1 construct: In the phage ELISA the Fab was biotinylated and captured on neutravidin coated plates
T1 sequence (VH, as listed by the source, chain 1 of 2): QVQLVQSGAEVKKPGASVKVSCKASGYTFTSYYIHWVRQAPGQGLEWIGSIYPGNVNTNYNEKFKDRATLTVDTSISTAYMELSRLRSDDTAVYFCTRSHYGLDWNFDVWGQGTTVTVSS
T1 sequence (VL, as listed by the source, chain 2 of 2): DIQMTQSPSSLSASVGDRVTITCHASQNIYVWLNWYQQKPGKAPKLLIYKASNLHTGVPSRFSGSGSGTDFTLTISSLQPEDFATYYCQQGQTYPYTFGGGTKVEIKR
Test: phage binding ELISA on Fab coated plate; wells pre-incubated with CD28 antigen as competitor
Where no end group is shown, it is not given here.
For each of the binders below, state its Anti-CD28 Fab signal in the presence of CD28.
The reply should be a number, written without any unit.

Q: Anti-CD28 Fab signal in the presence of CD28 for YCSGHLPEYMGKCL (cysteine pairing not given here; also: fused to phage pIII coat protein (sequence and linker not given here), not shown: pIII coat protein of the bacteriophage to which the peptide is fused) [Phage-867] ?
Result: 0.1

Q: Look up Anti-CD28 Fab signal in the presence of CD28 for this binder: YCDGHLSEYMAKCL (not shown: pIII coat protein of the bacteriophage to which the peptide is fused) [Phage-874]
Result: 0.08

Q: Could you share which Anti-CD28 Fab signal in the presence of CD28 value was measured for YCDGHTQAYIQKCL (not shown: pIII coat protein of the bacteriophage to which the peptide is fused) [Phage-871] ?
Result: 0.06

Q: // lookup Anti-CD28 Fab signal in the presence of CD28 for YCDGHAEEYLWKCL (cysteine pairing not given here; also: fused to phage pIII coat protein (sequence and linker not given here), not shown: pIII coat protein of the bacteriophage to which the peptide is fused) [Phage-868]
Result: 0.06

Q: Value lookup for Anti-CD28 Fab signal in the presence of CD28; key = YCQGHLPVYMEKCL (not shown: pIII coat protein of the bacteriophage to which the peptide is fused) [Phage-877]
Result: 0.06
